- Tested on: Bacteroides thetaiotaomicron
- TEST DESCRIPTION: IC25 growth inhibition; higher = less potent;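 also: lowest concentration where monotonic median growth AUC falls below 0.75 of drug-free control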
OUTCOME MEASURE: IC25 growth inhibition

>>> data_value("CCc1oc2ccccc2c1C(=O)c1cc(Br)c(O)c(Br)c1")
"≤ 20 µM"
>>> data_value("CN[C@H]1CC[C@@H](c2ccc(Cl)c(Cl)c2)c2ccccc21")
"≤ 80 µM"
>>> data_value("C[C@@H](O[C@H]1OCCN(Cc2n[nH]c(=O)[nH]2)[C@H]1c1ccc(F)cc1)c1cc(C(F)(F)F)cc(C(F)(F)F)c1 [Aprepitant]")
"> 160 µM"
>>> data_value("CCOC(=O)C1=C(C)NC(C)=C(C(=O)OCC)C1c1ccccc1/C=C/C(=O)OC(C)(C)C")
"> 20 µM"
>>> data_value("O=C1NCCN1CCN1CCC(c2cn(-c3ccc(F)cc3)c3ccc(Cl)cc23)CC1")
"≤ 40 µM"
>>> data_value("CN(C)C(=N)NC(=N)N")
"> 160 µM"
>>> data_value("C#C[C@]1(O)CC[C@H]2[C@@H]3CCc4cc(O)ccc4[C@H]3CC[C@@]21C")
"> 80 µM"
>>> data_value("CC(=O)Oc1cccc2c1C(=O)c1c(OC(C)=O)cc(C(=O)O)cc1C2=O")
"≤ 2.5 µM"

* * *

- System: Bacteroides thetaiotaomicron
- TEST DESCRIPTION: IC25 growth inhibition; higher = less potent
OUTCOME MEASURE: IC25 growth inhibition

>>> data_value("O=c1[nH]c(=O)n([C@H]2C[C@H](O)[C@@H](CO)O2)cc1F [Floxuridine]")
"< 1.25 µM"
>>> data_value("CC/C(=C(\\c1ccccc1)c1ccc(OCCN(C)C)cc1)c1ccccc1 [Tamoxifen]")
"≤ 40 µM"
>>> data_value("CCn1cc(C(=O)O)c(=O)c2cc(F)c(N3CCNCC3)cc21 [Norfloxacin]")
"≤ 80 µM"
>>> data_value("CN(Cc1cnc2nc(N)nc(N)c2n1)c1ccc(C(=O)N[C@@H](CCC(=O)O)C(=O)O)cc1 [Methotrexate]")
"> 80 µM"
>>> data_value("Clc1ccccc1C(c1ccccc1)(c1ccccc1)n1ccnc1 [Clotrimazole]")
"≤ 80 µM"
>>> data_value("Clc1ccc(Cn2c(CN3CCCC3)nc3ccccc32)cc1 [Clemizole]")
"≤ 160 µM"
>>> data_value("CN(C)CC/C=C1/c2ccccc2Sc2ccc(Cl)cc21 [Chlorprothixene]")
"≤ 40 µM"
>>> data_value("CC(C)(C)c1ccc(C(O)CCCN2CCC(C(O)(c3ccccc3)c3ccccc3)CC2)cc1 (centres undefined) [Terfenadine]")
"≤ 80 µM"
>>> data_value("CC(C)(O)c1ccccc1CC[C@@H](SCC1(CC(=O)O)CC1)c1cccc(/C=C/c2ccc3ccc(Cl)cc3n2)c1 [Montelukast]")
"> 80 µM"

* * *

# reported IC25 growth inhibition; entries follow
- Test system: Yersinia pseudotuberculosis
- TEST DESCRIPTION: IC25 growth inhibition; higher = less potent
OUTCOME MEASURE: IC25 growth inhibition

>>> data_value("CC(=O)Oc1cccc2c1C(=O)c1c(OC(C)=O)cc(C(=O)O)cc1C2=O")
"≤ 160 µM"
>>> data_value("O=c1[nH]c(=O)n([C@H]2C[C@H](O)[C@@H](CO)O2)cc1F")
"≤ 5 µM"
>>> data_value("C[C@H]1O[C@H](O[C@H]2[C@H](O)[C@@H](O)[C@@H](O[C@H]3[C@H](O)[C@@H](O)C(O)O[C@@H]3CO)O[C@@H]2CO)[C@H](O)[C@@H](O)[C@@H]1N[C@H]1C=C(CO)[C@@H](O)[C@H](O)[C@H]1O (some centres undefined)")
"> 160 µM"
>>> data_value("CN(C)CC/C=C1/c2ccccc2Sc2ccc(Cl)cc21")
"≤ 160 µM"
>>> data_value("N[C@@H](Cc1cc(I)c(Oc2cc(I)c(O)c(I)c2)c(I)c1)C(=O)O")
"> 160 µM"
>>> data_value("CC[C@H]1OC(=O)[C@H](C)[C@@H](O[C@H]2C[C@@](C)(OC)[C@@H](O)[C@H](C)O2)[C@H](C)[C@@H](O[C@@H]2O[C@H](C)C[C@H](N(C)C)[C@H]2O)[C@](C)(OC)C[C@@H](C)C(=O)[C@H](C)[C@@H](O)[C@]1(C)O")
"> 160 µM"
>>> data_value("CN(C)C(=N)NC(=N)N")
"> 160 µM"
>>> data_value("CC/C(=C(\\c1ccccc1)c1ccc(OCCN(C)C)cc1)c1ccccc1")
"> 40 µM"
>>> data_value("CCc1oc2ccccc2c1C(=O)c1cc(Br)c(O)c(Br)c1")
"> 160 µM"
>>> data_value("C[C@]12CCC3=C4CCC(=O)C=C4CC[C@H]3[C@@H]1CC[C@@]2(O)CC#N")
"> 80 µM"
>>> data_value("C/C=C(/C(=C/C)c1ccc(O)cc1)c1ccc(O)cc1")
"> 40 µM"
>>> data_value("CO[C@@H]1[C@@H](OC(N)=O)[C@@H](O)[C@H](Oc2ccc3c(O)c(NC(=O)c4ccc(O)c(CC=C(C)C)c4)c(=O)oc3c2C)OC1(C)C")
"≤ 20 µM"
>>> data_value("O=C(O)Cc1cc(I)c(Oc2ccc(O)c(I)c2)c(I)c1")
"> 160 µM"
>>> data_value("Clc1ccc(COC(Cn2ccnc2)c2ccc(Cl)cc2Cl)c(Cl)c1 (centres undefined)")
"> 40 µM"

* * *

- System: Fusobacterium nucleatum subsp. Nucleatum
- TEST DESCRIPTION: IC25 growth inhibition; higher = less potent
OUTCOME MEASURE: IC25 growth inhibition

>>> data_value("O=c1[nH]c(=O)n([C@H]2C[C@H](O)[C@@H](CO)O2)cc1F [Floxuridine]")
"≤ 80 µM"
>>> data_value("O=c1oc2ccccc2c(O)c1Cc1c(O)c2ccccc2oc1=O [Dicumarol]")
"≤ 80 µM"
>>> data_value("CN(Cc1cnc2nc(N)nc(N)c2n1)c1ccc(C(=O)N[C@@H](CCC(=O)O)C(=O)O)cc1 [Methotrexate]")
"≤ 20 µM"
>>> data_value("CC/C(=C(\\c1ccccc1)c1ccc(OCCN(C)C)cc1)c1ccccc1 [Tamoxifen]")
"> 40 µM"
>>> data_value("CCn1cc(C(=O)O)c(=O)c2cc(F)c(N3CCNCC3)cc21 [Norfloxacin]")
"≤ 20 µM"
>>> data_value("CC(=O)N1CCN(c2ccc(OCC3COC(Cn4ccnc4)(c4ccc(Cl)cc4Cl)O3)cc2)CC1 (stereo not drawn) [Ketoconazole]")
"≤ 160 µM"
>>> data_value("CN(C)CCCN1c2ccccc2Sc2ccc(Cl)cc21 [Chlorpromazine]")
"≤ 80 µM"
>>> data_value("NC[C@H]1O[C@H](O[C@H]2[C@H](O)[C@@H](O[C@H]3O[C@H](CO)[C@@H](O)[C@H](N)[C@H]3O)[C@H](N)C[C@@H]2N)[C@H](N)C[C@@H]1O [Tobramycin]")
"≤ 80 µM"

* * *

- Tested on: Clostridium saccharolyticum
- TEST DESCRIPTION: IC25 growth inhibition; higher = less potent
OUTCOME MEASURE: IC25 growth inhibition

>>> data_value("C[C@]12CCC3=C4CCC(=O)C=C4CC[C@H]3[C@@H]1CC[C@@]2(O)CC#N [Dienogest]")
"> 80 µM"
>>> data_value("CCn1cc(C(=O)O)c(=O)c2cc(F)c(N3CCNCC3)cc21 [Norfloxacin]")
"≤ 40 µM"
>>> data_value("CCN(CC)CCOc1ccc(C(=C(Cl)c2ccccc2)c2ccccc2)cc1 [Clomifen]")
"≤ 40 µM"
>>> data_value("CCOC(=O)C1=C(C)NC(C)=C(C(=O)OCC)C1c1ccccc1/C=C/C(=O)OC(C)(C)C [Lacidipine]")
"> 20 µM"
>>> data_value("Cc1c(Cl)cccc1Nc1ccccc1C(=O)O [Tolfenamic acid]")
"≤ 160 µM"
>>> data_value("CO[C@@H]1[C@@H](OC(N)=O)[C@@H](O)[C@H](Oc2ccc3c(O)c(NC(=O)c4ccc(O)c(CC=C(C)C)c4)c(=O)oc3c2C)OC1(C)C [Novobiocin]")
"≤ 10 µM"
>>> data_value("C[C@@H](O[C@H]1OCCN(Cc2n[nH]c(=O)[nH]2)[C@H]1c1ccc(F)cc1)c1cc(C(F)(F)F)cc(C(F)(F)F)c1 [Aprepitant]")
"> 160 µM"
>>> data_value("C#C[C@]1(O)CC[C@H]2[C@@H]3CCc4cc(O)ccc4[C@H]3CC[C@@]21C [Ethinylestradiol]")
"> 80 µM"
>>> data_value("NC[C@H]1O[C@H](O[C@H]2[C@H](O)[C@@H](O[C@H]3O[C@H](CO)[C@@H](O)[C@H](N)[C@H]3O)[C@H](N)C[C@@H]2N)[C@H](N)C[C@@H]1O [Tobramycin]")
"≤ 10 µM"
>>> data_value("CC[C@H]1OC(=O)[C@H](C)[C@@H](O[C@H]2C[C@@](C)(OC)[C@@H](O)[C@H](C)O2)[C@H](C)[C@@H](O[C@@H]2O[C@H](C)C[C@H](N(C)C)[C@H]2O)[C@](C)(OC)C[C@@H](C)C(=O)[C@H](C)[C@@H](O)[C@]1(C)O [Clarithromycin]")
"< 1.25 µM"
>>> data_value("O=C(O)Cc1cc(I)c(Oc2ccc(O)c(I)c2)c(I)c1 [Tiratricol]")
"≤ 20 µM"
>>> data_value("N[C@@H](Cc1cc(I)c(Oc2cc(I)c(O)c(I)c2)c(I)c1)C(=O)O [L-Thyroxin]")
"> 160 µM"
>>> data_value("CC(=O)N1CCN(c2ccc(OCC3COC(Cn4ccnc4)(c4ccc(Cl)cc4Cl)O3)cc2)CC1 (stereo unspecified) [Ketoconazole]")
"≤ 80 µM"
>>> data_value("CN[C@H]1CC[C@@H](c2ccc(Cl)c(Cl)c2)c2ccccc21 [Sertraline]")
"≤ 80 µM"
>>> data_value("CCN(CC)C(C)CN1c2ccccc2Sc2ccccc21 (stereo unspecified) [Ethopropazine]")
"> 80 µM"
>>> data_value("Cc1c(OCC(F)(F)F)ccnc1C[S+]([O-])c1nc2ccccc2[nH]1 (stereo unspecified) [Lansoprazole]")
"> 160 µM"
